Origin of the recorded values: patent US7074789B2

Biological target: Lck (Homo sapiens)
Construct: Kinases are expressed as either kinase domains or full length constructs; made in house
Sequence (P06239 whole entry, species assumed, the tested form may be a part): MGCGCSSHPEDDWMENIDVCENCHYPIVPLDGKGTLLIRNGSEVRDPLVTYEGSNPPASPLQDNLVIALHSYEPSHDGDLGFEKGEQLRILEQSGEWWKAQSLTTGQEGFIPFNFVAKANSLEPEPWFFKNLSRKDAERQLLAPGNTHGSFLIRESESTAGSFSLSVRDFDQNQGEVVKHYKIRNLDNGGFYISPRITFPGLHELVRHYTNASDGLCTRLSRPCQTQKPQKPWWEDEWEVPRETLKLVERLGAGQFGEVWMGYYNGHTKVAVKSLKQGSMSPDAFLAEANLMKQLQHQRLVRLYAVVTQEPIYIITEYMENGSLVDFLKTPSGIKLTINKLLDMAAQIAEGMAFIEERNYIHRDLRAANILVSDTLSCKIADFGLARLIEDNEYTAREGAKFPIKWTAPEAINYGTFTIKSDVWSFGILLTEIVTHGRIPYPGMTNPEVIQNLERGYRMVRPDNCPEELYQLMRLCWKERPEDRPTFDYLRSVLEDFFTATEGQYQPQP
Experiment: Kinase inhibition assay (33P transfer), Lck
Format: biochemical
Settings: read-out: Lck-1
Source text: The inhibitor compounds described herein are screened in the following manner. […] Kinases are expressed as either kinase domains or full length constructs fused to glutathione S-transferase (GST) or polyHistidine tagged fusion proteins in either E. colior Baculovirus-High Five expression systems. […]
I'd appreciate it if you could supply IC50 values for the items below.

These solved cases illustrate the format of a correct answer.
[
  {
    "STRUCTURE SMILES STRING": "COc1cc(Nc2ncnc(-c3ccc(NCc4ccccc4)nc3)n2)cc(OC)c1OC",
    "MEASURED ON": "Lck (Homo sapiens)",
    "IC50": "> 10.1 µM"
  },
  {
    "STRUCTURE SMILES STRING": "COC(=O)c1ccc(-c2cc(Nc3ncnc(Nc4cccc(C(N)=O)c4)n3)[nH]n2)cc1",
    "MEASURED ON": "Lck (Homo sapiens)",
    "IC50": "> 10.5 µM"
  },
  {
    "STRUCTURE SMILES STRING": "COc1ccc(Nc2ncnc(Nc3cccc(-c4ccnc(C)n4)c3)n2)cc1OC",
    "MEASURED ON": "Lck (Homo sapiens)",
    "IC50": "0.963 to 5.78 µM"
  },
  {
    "STRUCTURE SMILES STRING": "CNS(=O)(=O)Cc1ccc(Nc2ncnc(Nc3ccc4c(cnn4Cc4ccccc4)c3)n2)cc1",
    "MEASURED ON": "Lck (Homo sapiens)",
    "IC50": "0.799 to 4.79 µM"
  },
  {
    "STRUCTURE SMILES STRING": "COc1ccc(Nc2ncnc(N(C)c3ccc(Cl)c(Cl)c3)n2)cc1OC",
    "MEASURED ON": "Lck (Homo sapiens)",
    "IC50": "< 0.985 µM"
  },
  {
    "STRUCTURE SMILES STRING": "Nc1nc2ccccc2n1-c1ncnc(Nc2cccc(Cl)c2)n1",
    "MEASURED ON": "Lck (Homo sapiens)",
    "IC50": "1.18 to 7.11 µM"
  }
]

Batch: IC50 for all items listed.
1. CN(c1cccc(Cl)c1)c1ncnc(Nc2ncccn2)n1
2. O=c1[nH]c2ccccc2n1-c1ncnc(Nc2ccc3[nH]ncc3c2)n1
3. Cc1ccc(Nc2ncnc(Nc3cccc(CC(=O)O)c3)n2)cc1O
4. COc1ccc(Nc2ncnc(-n3c(=O)[nH]c4ccccc43)n2)cc1OC

// result
["> 14.3 µM", "> 13.1 µM", "6.83 to 9.96 µM", "6.59 to 9.61 µM"]

Batch: IC50 for all items listed.
1. c1ccc(Cn2ncc3cc(Nc4ncnc(Nc5ccc(N6CCCCC6)cc5)n4)ccc32)cc1
2. COc1cc(Nc2ncnc(-n3c(NCCc4ccccn4)nc4ccccc43)n2)cc(OC)c1OC
3. Nc1nc2ccccc2n1-c1ncnc(Nc2cccc(CC(=O)O)c2)n1
4. Nc1nc2ccccc2n1-c1ncnc(Nc2ccc(N3CCOCC3)cc2)n1

// result
> 9.44 µM
0.802 to 4.81 µM
> 12.5 µM
1.03 to 6.18 µM

Batch: IC50 for all items listed.
1. COc1ccc2c(c1)CCCN2c1ncnc(Nc2cc(OC)c(OC)c(OC)c2)n1
2. Nc1nc2ccccc2n1-c1ncnc(N2C(=O)c3ccccc3C2=O)n1

// result
1: < 0.945 µM; 2: > 12.6 µM
